Data provenance is PubChem BioAssay (NCI).

# TEST: NCI Yeast Anticancer Drug Screen. Data for the sgs1 mgt1 strain (AID 161)
# EXPERIMENTAL_PARAMETERS: S. cerevisiae sgs1 mgt1 strain, at 50.0 µM
This is part of a sample that, as a whole, favours compounds with a hit. Of some 79,000 tested, about 15% had one in any assay. Calls of active or inactive are those of the source. No stated cut-off is given here; in the data, active means growth inhibition above about 70%; inactive means the rest.
Tick one outcome: YES (active), NO (inactive)

See these solved cases before continuing.
- MOLECULE: "COC(=S)SCSC(=S)OC"
  CATEGORY_LABEL: "NO"
- MOLECULE: "Cc1ccc(S(=O)(=O)N(CCOS(C)(=O)=O)CCOS(C)(=O)=O)cc1"
  CATEGORY_LABEL: "NO"
- MOLECULE: "CC12CCCC1C1CC=C3CC(SC4CCC5(C)C(=CCC6C7CCCC7(C)CCC65)C4)CCC3(C)C1CC2 (stereo not given)"
  CATEGORY_LABEL: "NO"
- MOLECULE: "O=C1CCC2(CC1)SCCCS2"
  CATEGORY_LABEL: "NO"
- MOLECULE: "COC(=O)/C(=C\\Nc1cccc(C)n1)S(=O)(=O)c1ccc(C)cc1"
  CATEGORY_LABEL: "NO"
- MOLECULE: "COc1ccc(CC2Cc3ccccc3CC(=O)N2)cc1OC (stereo not given)"
  CATEGORY_LABEL: "NO"
- MOLECULE: "CC(C)OP(=O)(OC(C)C)C([CH2][Sn]([CH3])([CH3])[Cl])P(=O)(OC(C)C)OC(C)C"
  CATEGORY_LABEL: "NO"
- MOLECULE: "O=[N+]([O-])C(/C=C(\\Cl)[N+](=O)[O-])=C(N1CCOCC1)N1CCOCC1"
  CATEGORY_LABEL: "NO"

// query Kindly provide the recorded test outcome for the following molecule: COc1ccc(N2CCN(CC(O)COc3ccc(C(=O)Cc4ccccc4)cc3)CC2)cc1 (stereo not given)
// result YES

// query Any idea what this test logged for COc1nc(NC2OC(COC(C)=O)C(OC(C)=O)C(OC(C)=O)C2OC(C)=O)c(C(=O)CCl)c(=O)[nH]1 (stereo not given) ?
// result NO
